# Protocol Description: Total clearance in mouse at 0.10 mg/kg, iv administered in cassette mode
# Assay type: ADME, organism-based
# Details: in vivo, 0.1 mg/kg
Measured Attribute: clearance (L/h/kg)
Just the number please, in L/h/kg, no unit attached.

Ask: Look up clearance: CC(=O)NCCSc1nc2cscc2c(=O)n1-c1ccc(OCC(F)(F)F)cc1
Result: 1.5

###

# Measured Target: Acyl-CoA desaturase 1 (Rattus norvegicus, UniProt P07308)
# Sequence (P07308 whole entry): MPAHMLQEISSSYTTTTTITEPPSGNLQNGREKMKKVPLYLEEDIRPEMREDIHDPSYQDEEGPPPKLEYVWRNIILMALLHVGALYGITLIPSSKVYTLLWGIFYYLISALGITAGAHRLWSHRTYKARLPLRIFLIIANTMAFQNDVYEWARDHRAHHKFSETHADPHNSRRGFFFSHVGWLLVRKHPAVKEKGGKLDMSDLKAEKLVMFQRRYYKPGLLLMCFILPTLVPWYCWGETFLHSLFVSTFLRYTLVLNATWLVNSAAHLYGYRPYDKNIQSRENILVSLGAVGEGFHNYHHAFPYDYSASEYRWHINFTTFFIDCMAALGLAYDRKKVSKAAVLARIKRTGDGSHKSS
Measured Attribute: IC50

Ask: Provide the documented IC50 with Acyl-CoA desaturase 1 (Rattus norvegicus, UniProt P07308) as the system for CC(=O)NCCSc1nc2cscc2c(=O)n1-c1ccc(OCC(F)(F)F)cc1
Result: > 10 µM

###

# Measured Target: Acyl-CoA (8-3)-desaturase (Rattus norvegicus, UniProt Q920R3)
# Sequence (Q920R3 whole entry): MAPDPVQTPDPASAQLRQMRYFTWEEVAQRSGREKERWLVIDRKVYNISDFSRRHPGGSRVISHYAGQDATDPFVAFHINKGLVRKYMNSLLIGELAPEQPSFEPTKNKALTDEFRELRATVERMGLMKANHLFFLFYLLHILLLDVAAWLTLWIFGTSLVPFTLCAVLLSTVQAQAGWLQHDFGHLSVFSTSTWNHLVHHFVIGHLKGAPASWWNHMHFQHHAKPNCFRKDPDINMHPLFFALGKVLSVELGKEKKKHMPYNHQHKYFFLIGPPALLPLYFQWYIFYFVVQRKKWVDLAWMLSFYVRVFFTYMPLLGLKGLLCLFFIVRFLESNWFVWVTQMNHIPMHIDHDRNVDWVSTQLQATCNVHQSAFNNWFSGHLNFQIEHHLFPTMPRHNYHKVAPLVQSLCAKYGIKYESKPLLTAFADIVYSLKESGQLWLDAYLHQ
# Protocol Description: Inhibition of D5D in Sprague-Dawley rat liver microsomes using [14C]DGLA as substrate preincubated for 5 mins measured after 120 mins
Measured Attribute: IC50 (nM)
Return type: number; implicit unit nM.

CC(=O)NCCSc1nc2cscc2c(=O)n1-c1ccc(OCC(F)(F)F)cc1 : 19

Moving on to the next molecule.
Ask: Lab request: please report IC50 under test system Acyl-CoA (8-3)-desaturase (Rattus norvegicus, UniProt Q920R3) for Nc1ccccc1C(=O)Nc1cccc(Cl)c1
Result: 160
